These measurements were taken from patent US20210380703A1.

Readings of optical density for the listed binders
Target: Mouse ACVR2A (mouse, UniProt P27038 20-135, limits assumed); further: test concentration or dose not given here
Sequence (P27038 20-135 limits assumed): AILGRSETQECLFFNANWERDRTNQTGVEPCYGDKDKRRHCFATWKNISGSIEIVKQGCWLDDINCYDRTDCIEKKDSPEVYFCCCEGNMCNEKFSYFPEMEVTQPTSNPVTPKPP
Assay: ELISA
Supply the numeric figure in OD, leaving out any unit text.

Solved entries (count: 2):
Asked: Return reported optical density. Input binder: 368_G10 (antibody, V domains shown, VH/VL only) VH: EVQLLESGGGLVQPGGSLRLSCAASGFTFSSYSMHWVRQAPGKGLEWVSSINYNGGYTSYADSVKGRFTISRDNSKNTLYLQMNSLRAEDTAVYYCARGATWHDTHLDYWGQGTLVTVSS VL: DIQMTQSPSSLSASVGDRVTITCRASQSIVSYVNWYQQKPGKAPKLVIYAATSRASGVPSRFSGSGSGTDFTLTISSLQPEDFATYYCQQSYDTPLTFGGGTKVEIK
Given back: 2.28

Asked: Give the reported value of optical density for this record: 369_C12 (antibody, V domains shown, VH/VL only) VH: EVQLLESGGGLVQPGGSLRLSCAASGFTFSSYGMNWVRQAPGKGLEWVANINYNGGYKGYADSVKGRFTISRDNSKNTLYLQMNSLRAEDTAVYYCARGATWHDTHLDYWGQGTLVTVSS VL: DIQMTQSPSSLSASVGDRVTITCRASQSILTYLNWYQQKPGKAPKLLIYAATSRHSGVPSRFSGSGSGTDFTLTISSLQPEDFATYYCQQSYDTPLTFGGGTKVEIK
Given back: 3.45

New cases:
Asked: Dear colleague, please send me the reported optical density for 368_G03 (antibody, V domains shown, VH/VL only) VH: EVQLLESGGGLVQPGGSLRLSCAASGFTFSSYSMNWVRQAPGKGLEWVSGINYNSGYTSYADSVKGRFTISRDNSKNTLYLQMNSLRAEDTAVYYCARGATWHDTALDYWGQGTLVTVSS VL: DIQMTQSPSSLSASVGDRVTITCRASQSILSYLNWYQQKPGKAPKLVIYAATSRASGVPSRFSGSGSGTDFTLTISSLQPEDFATYYCQQSYDTPLTFGGGTKVEIK when you can.
Given back: 2.75
